System: Crude diglycosidase
Procedure Details: Examination of temperature in the conversion into isoflavone aglycons by diglycosidase using soybean materials
Format: biochemical, Penicillium multicolor IAM7153
Parameters: concentration or dose not given beside the values
Test Parameters: 80° C., heat treatment of enzyme yes, reaction time 6 h
# key: entry, value: Decomposition efficiency of daidzin family in defatted soybean
Could you give me the number in %? Just the number is fine.

Check out these entries, answers already filled in.
Compound: O=C(O)CC(=O)OC[C@H]1O[C@@H](Oc2ccc3c(=O)c(-c4ccc(O)cc4)coc3c2)[C@H](O)[C@@H](O)[C@@H]1O [malonyldaidzin, 6″-O-malonyldaidzin]
Unit String: %
Obs Value: 17.4
--
Compound: O=c1c(-c2ccc(O)cc2)coc2cc(O)ccc12 [daidzein]
Unit String: %
Obs Value: 21.7

Now for a further compound.
Give me measured Decomposition efficiency of daidzin family in defatted soybean, please, for this compound: O=c1c(-c2ccc(O)cc2)coc2cc(O[C@@H]3O[C@H](CO)[C@@H](O)[C@H](O)[C@H]3O)ccc12 [daidzin]
60.9
